B1: HEEH_KT_rd6_3632 (parent)
chain: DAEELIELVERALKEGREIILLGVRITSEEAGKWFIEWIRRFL

- Variants of: B1
- experimentSummary: folding stability dG (cDNA display proteolysis); higher = more stable
- conditionContext: PBS, room temperature
Assign class by folding stability dG: not lower than 4 kcal/mol means YES; lower than 4 kcal/mol means NO.

Some solved cases for reference:
Enquiry: Evaluate L43S : folding stability dG at minimum 4 kcal/mol?
Return: NO

Enquiry: Does the variant G16L have recorded folding stability dG that is 4 kcal/mol or more?
Return: YES

Enquiry: Would you say G32L shows folding stability dG at minimum 4 kcal/mol?
Return: YES

Enquiry: // inclusive: folding stability dG at least 4 kcal/mol? input: R40G
Return: NO

New cases:
Enquiry: Can I6Y be said to have folding stability dG at or above 4 kcal/mol?
Return: NO

Enquiry: Does the reported folding stability dG for E4F fall at or above the 4 kcal/mol mark?
Return: YES

Enquiry: Decide: folding stability dG of L22H >= 4 kcal/mol?
Return: NO
